// reported IC50 per item
Biological target: T1, MAdCAM-IgG1 Fc fusion protein (human)
T1 construct: Expressed in CHO-DHFR cells; also called MAdCAM-IgFc; soluble MAdCAM (in the sandwich ELISA)
T1 sequence (chain, as listed by the source limits assumed): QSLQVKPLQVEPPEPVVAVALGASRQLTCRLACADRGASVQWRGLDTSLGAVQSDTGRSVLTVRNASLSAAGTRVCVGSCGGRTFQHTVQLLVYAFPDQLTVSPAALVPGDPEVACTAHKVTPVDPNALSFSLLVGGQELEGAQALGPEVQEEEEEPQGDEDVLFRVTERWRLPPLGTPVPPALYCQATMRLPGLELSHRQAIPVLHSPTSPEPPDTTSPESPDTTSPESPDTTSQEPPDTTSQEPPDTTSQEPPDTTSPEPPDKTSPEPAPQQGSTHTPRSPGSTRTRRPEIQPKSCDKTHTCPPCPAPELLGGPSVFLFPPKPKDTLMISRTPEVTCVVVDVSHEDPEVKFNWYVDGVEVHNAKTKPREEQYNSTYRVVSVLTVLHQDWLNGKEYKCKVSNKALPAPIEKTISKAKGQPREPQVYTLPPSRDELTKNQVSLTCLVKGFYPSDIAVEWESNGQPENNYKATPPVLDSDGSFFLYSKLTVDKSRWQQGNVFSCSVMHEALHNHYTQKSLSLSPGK
Experiment: MAdCAM-IgG1 Fc fusion / JY cell adhesion assay, mean IC50
readoutName: IC50 (µg/mL)

binder="modified anti-MAdCAM monoclonal antibody 6.77.1-mod (antibody, human IgG2, kappa, V domains shown, human IgG2 kappa, made in HEK 293T cells; signal peptide left out) VH: EVQLVESGGGLVKPGGSLRLSCAASGFTFSSYSMNWVRQAPGKGLEWVSSISSSSSYIYYADSVKGRFTISRDNAKNSLYLQMNSLRAEDTAVYYCARDGYSSGWSYYYYYGMDVWGQGTTVTVSS VL: DIVMTQTPLSLSVTPGQPASISCKSSQSLLLSDGKTYLNWYLQKPGQPPQLLIYEVSNRFSGVPDRFSGSGSGTDFTLKISRVEAEDVGVYSCMQSIQLMSSFGQGTKLEIKR" readoutname=IC50 unitslabel=µg/mL recordednumber=0.077
binder="modified anti-MAdCAM monoclonal antibody 7.26.4-mod (antibody, human IgG2, kappa, V domains shown, human IgG2 kappa, parental heavy chain with modified kappa chain, made in HEK 293T cells; signal peptide left out) VH: QVQLVQSGAEVKKPGASVKVSCEASGYTFTSYGIDWVRQAPGQGLEWMGWISVYSGNTNYAQKLQGRVTMSTDTSTSTAYMELRSLRSDDTAVYYCAREGSSSSGDYYYGMDVWGQGTTVTVSS VL: DIVMTQTPLSLSVTPGQPASISCKSSQSLLYSDGKTYLFWYLQKPGQPPQLLIYEVSNRFSGVPDRFSGSGSGTDFTLKISRVEAEDVGVYYCMQSIQLPWTFGQGTKVEIKR" readoutname=IC50 unitslabel=µg/mL recordednumber=0.033
binder="anti-MAdCAM monoclonal antibody 6.34.2 (antibody, human IgG4, kappa, V domains shown, fully human IgG4 kappa from hybridoma; signal peptide left out; kappa chain stained positive for glycosylation) VH: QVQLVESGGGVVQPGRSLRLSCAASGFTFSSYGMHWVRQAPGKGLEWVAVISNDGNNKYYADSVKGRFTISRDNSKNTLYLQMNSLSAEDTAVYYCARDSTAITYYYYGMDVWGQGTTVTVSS VL: DIQMTQSPSSLSASVGDRVTITCRASQNISSYLNWFQQKPGKAPKLLIYAASGLKRGVPSRFSGSGSGTDFTLTIRTLQPDDFATYSCHQSYSLPFTFGPGTKVDIKR" readoutname=IC50 unitslabel=µg/mL recordednumber=0.013
binder="anti-MAdCAM monoclonal antibody 6.22.2 (antibody, human IgG4, kappa, V domains shown, fully human IgG4 kappa from hybridoma; signal peptide left out; kappa chain stained positive for glycosylation) VH: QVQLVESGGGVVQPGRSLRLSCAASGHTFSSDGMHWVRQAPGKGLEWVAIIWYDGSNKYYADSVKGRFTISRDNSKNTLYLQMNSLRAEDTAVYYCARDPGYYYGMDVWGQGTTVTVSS VL: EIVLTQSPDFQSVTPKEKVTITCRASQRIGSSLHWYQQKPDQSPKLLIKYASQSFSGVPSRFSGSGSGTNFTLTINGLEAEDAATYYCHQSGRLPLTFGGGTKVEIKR" readoutname=IC50 unitslabel=µg/mL recordednumber=0.018
binder="anti-MAdCAM monoclonal antibody 7.26.4 (antibody, human IgG2, kappa, V domains shown, fully human IgG2 kappa from hybridoma; signal peptide left out; kappa chain glycosylation confirmed) VH: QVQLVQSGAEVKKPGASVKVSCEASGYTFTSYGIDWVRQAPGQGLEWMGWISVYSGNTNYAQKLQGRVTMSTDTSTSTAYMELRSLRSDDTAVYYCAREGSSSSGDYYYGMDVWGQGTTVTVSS VL: DIVMTQTPLSLSVTPGQPASISCKSNQSLLYSDGKTYLFWYLQKPGQPPQLLIYEVSNRFSGVPDRFSGSGSGTDFTLKISRVEAEDVGVYYCMQSIQLPWTFGQGTKVEIKR" readoutname=IC50 unitslabel=µg/mL recordednumber=0.021
binder="modified anti-MAdCAM monoclonal antibody 6.22.2-mod (antibody, human IgG2, kappa, V domains shown, human IgG2 kappa, made in HEK 293T cells; signal peptide left out) VH: QVQLVESGGGVVQPGRSLRLSCAASGFTFSSDGMHWVRQAPGKGLEWVAIIWYDGSNKYYADSVKGRFTISRDNSKNTLYLQMNSLRAEDTAVYYCARDPGYYYGMDVWGQGTTVTVSS VL: EIVLTQSPDFQSVTPKEKVTITCRASQRIGSSLHWYQQKPDQSPKLLIKYASQSFSGVPSRFSGSGSGTDFTLTINSLEAEDAATYYCHQSGRLPLTFGGGTKVEIKR" readoutname=IC50 unitslabel=µg/mL recordednumber=0.058
binder="modified anti-MAdCAM monoclonal antibody 6.34.2-mod (antibody, human IgG2, kappa, V domains shown, human IgG2 kappa, made in HEK 293T cells; signal peptide left out) VH: QVQLVESGGGVVQPGRSLRLSCAASGFTFSSYGMHWVRQAPGKGLEWVAVISNDGNNKYYADSVKGRFTISRDNSKNTLYLQMNSLRAEDTAVYYCARDSTAITYYYYGMDVWGQGTTVTVSS VL: DIQMTQSPSSLSASVGDRVTITCRASQSISSYLNWYQQKPGKAPKLLIYAASGLKRGVPSRFSGSGSGTDFTLTISSLQPEDFATYYCHQSYSLPFTFGPGTKVDIKR" readoutname=IC50 unitslabel=µg/mL recordednumber=0.049

Entry source: patent US20070166308A1
